target_system: Human recombinant MMP-9 (Homo sapiens, UniProt P14780)
Construct: made in house; host or cells: MMP-9-transfected HT1080 cells (spent media)
Sequence (P14780 107-707 limits assumed): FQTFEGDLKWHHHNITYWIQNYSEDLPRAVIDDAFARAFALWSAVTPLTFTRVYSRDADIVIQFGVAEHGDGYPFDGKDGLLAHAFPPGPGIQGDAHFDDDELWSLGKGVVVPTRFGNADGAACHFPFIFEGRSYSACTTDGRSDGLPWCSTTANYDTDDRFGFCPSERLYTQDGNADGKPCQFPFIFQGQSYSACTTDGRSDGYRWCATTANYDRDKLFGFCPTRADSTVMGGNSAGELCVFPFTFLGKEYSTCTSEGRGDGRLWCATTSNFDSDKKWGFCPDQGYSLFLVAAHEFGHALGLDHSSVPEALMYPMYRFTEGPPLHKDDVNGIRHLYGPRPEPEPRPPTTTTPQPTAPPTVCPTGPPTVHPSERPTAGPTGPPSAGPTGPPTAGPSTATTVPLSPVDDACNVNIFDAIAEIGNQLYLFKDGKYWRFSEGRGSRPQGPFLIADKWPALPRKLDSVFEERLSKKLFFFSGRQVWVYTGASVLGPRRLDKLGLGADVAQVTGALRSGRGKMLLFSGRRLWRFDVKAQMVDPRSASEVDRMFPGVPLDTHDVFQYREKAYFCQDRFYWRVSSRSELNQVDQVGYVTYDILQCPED
protocol_description: In vitro MMP inhibition, Ki determination (fluorogenic substrate II)
Type: biochemical
test_conditions: value in parentheses
endpoint: Ki (nM)

- structure_notation: "O=C(NO)C1(S(=O)(=O)c2ccc(OCCCc3cccc(-c4ccoc4)c3)cc2)CCOCC1"
  quantity_unit: "nM"
  Ki: 881
- structure_notation: "CCc1ccc(CCCOc2ccc(S(=O)(=O)C3(C(=O)NO)CCOCC3)cc2)cn1"
  quantity_unit: "nM"
  Ki: 128
- structure_notation: "COCCN1CCC(C(=O)NO)(S(=O)(=O)c2ccc(OCCCc3cncc(-c4ccccc4)c3)cc2)CC1"
  quantity_unit: "nM"
  Ki: 160
- structure_notation: "O=C(NO)C1(S(=O)(=O)c2ccc(OCCc3cccnc3)cc2)CCOCC1"
  quantity_unit: "nM"
  Ki: 33.6
- structure_notation: "COCCN1CCC(C(=O)NO)(S(=O)(=O)c2ccc(OCCc3cccc(-c4ccc(F)c(F)c4)c3)cc2)CC1"
  quantity_unit: "nM"
  Ki: 1770
- structure_notation: "COCCN1CCC(C(=O)NO)(S(=O)(=O)c2ccc(OCCCc3cccc(-c4ccc(F)cc4F)c3)cc2)CC1"
  quantity_unit: "nM"
  Ki: 255
- structure_notation: "Cc1ccc(-c2cccc(CCCOc3ccc(S(=O)(=O)C4(C(=O)NO)CCOCC4)cc3)c2)s1"
  quantity_unit: "nM"
  Ki: 688
- structure_notation: "O=C(NO)C1(S(=O)(=O)c2ccc(OCCCc3cncc(-c4ccccc4)c3)cc2)CCOCC1"
  quantity_unit: "nM"
  Ki: 739
- structure_notation: "CCCc1ccc(CCCOc2ccc(S(=O)(=O)C3(C(=O)NO)CCOCC3)cc2)cn1"
  quantity_unit: "nM"
  Ki: 324
- structure_notation: "O=C(NO)C1(S(=O)(=O)c2ccc(OCCCc3cccc(-c4coc5ccccc45)c3)cc2)CCOCC1"
  quantity_unit: "nM"
  Ki: 1300

[1] O=C(NO)C1(S(=O)(=O)c2ccc(OCCCc3cccc(-c4ccc([N+](=O)[O-])cc4)c3)cc2)CCOCC1
[2] COCCN1CCC(C(=O)NO)(S(=O)(=O)c2ccc(OCCc3cccc(-c4ccncc4)c3)cc2)CC1
[3] CCC(=O)c1cccc(CCCOc2ccc(S(=O)(=O)C3(C(=O)NO)CCOCC3)cc2)c1
[4] CCCCCCCOc1ccc(S(=O)(=O)C2(C(=O)NO)CCOCC2)cc1
Query string: Rank entries according to their Ki, from the largest number down. Please express your ranking as an ordered list of the labels.
Result string: 1, 3, 2, 4
(1: 1100 nM, 3: 238 nM, 2: 117 nM, 4: 0.44 nM)
